# Test target: JAK3 (Homo sapiens, UniProt P52333)
# Sequence (P52333 whole entry, species assumed): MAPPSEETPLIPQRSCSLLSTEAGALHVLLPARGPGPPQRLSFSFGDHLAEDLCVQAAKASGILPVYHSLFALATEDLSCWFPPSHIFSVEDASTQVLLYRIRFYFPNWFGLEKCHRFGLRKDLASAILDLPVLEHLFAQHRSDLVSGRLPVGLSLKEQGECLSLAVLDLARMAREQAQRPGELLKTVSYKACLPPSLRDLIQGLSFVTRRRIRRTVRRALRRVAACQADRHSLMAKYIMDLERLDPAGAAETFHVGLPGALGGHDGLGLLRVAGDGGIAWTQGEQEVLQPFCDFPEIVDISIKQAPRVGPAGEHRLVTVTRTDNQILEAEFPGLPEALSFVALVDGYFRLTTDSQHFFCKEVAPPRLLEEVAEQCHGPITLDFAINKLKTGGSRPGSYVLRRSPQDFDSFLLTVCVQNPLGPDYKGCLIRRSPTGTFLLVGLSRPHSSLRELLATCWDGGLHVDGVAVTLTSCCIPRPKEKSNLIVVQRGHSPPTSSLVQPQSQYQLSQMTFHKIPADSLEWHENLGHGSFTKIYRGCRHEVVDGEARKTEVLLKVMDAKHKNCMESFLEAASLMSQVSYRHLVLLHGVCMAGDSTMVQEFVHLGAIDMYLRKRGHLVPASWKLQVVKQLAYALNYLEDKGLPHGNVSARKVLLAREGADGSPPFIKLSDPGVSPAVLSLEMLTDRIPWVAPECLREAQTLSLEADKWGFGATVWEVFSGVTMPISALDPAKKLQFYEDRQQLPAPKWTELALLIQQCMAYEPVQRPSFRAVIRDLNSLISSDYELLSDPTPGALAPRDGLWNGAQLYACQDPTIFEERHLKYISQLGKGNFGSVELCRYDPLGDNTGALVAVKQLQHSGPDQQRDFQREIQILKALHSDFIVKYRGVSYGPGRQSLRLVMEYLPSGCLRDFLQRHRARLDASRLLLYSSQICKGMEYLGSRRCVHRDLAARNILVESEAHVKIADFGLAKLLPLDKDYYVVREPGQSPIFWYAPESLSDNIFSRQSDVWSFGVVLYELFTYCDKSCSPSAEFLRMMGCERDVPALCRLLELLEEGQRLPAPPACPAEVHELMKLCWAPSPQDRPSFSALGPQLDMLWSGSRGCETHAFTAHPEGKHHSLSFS
# Experimental details: biochemical
Readout: Ki

CCNC(=O)c1ccc(Sc2nc(Nc3cc(C)[nH]n3)cc(N3CCC3)n2)cc1 [Compound 20] : 10 to 500 nM

State the recorded Ki for every item in the following list.
1. Cc1cc(Nc2cc(N3CC(O)(C4CC4)C3)nc(Sc3ccc(NC(=O)C4CC4)cc3F)n2)[nH]n1 [Compound 110]
2. Cc1cnc(Nc2cc(N3CC(N(C)C)C3)nc(Sc3ccc(NC(=O)C4CC4)cc3)n2)s1 [Compound 1]
3. Cc1cc(Nc2cc(N3CCC3)nc(Sc3ccc(C(=O)NCc4ccccc4Cl)cc3)n2)n[nH]1 [Compound 24]
4. Cc1cc(Nc2cc(N3CC(F)(C4CC4)C3)nc(Sc3ccc(NC(=O)C4CC4)cc3)n2)n[nH]1 [Compound 128]

**A:**
≤ 10 nM
10 to 500 nM
500 to 2000 nM
10 to 500 nM

Please give Ki for each item listed below.
1. Cc1ccc(C(=O)Nc2ccc(Sc3nc(Nc4cc(C)[nH]n4)cc(N4CCC4)n3)cc2)cc1 [Compound 28]
2. Cc1cc(Nc2cc(N3CC(F)(C4CC4)C3)nc(Sc3ccc(NC(=O)C4(C)CC4)cc3)n2)[nH]n1 [Compound 203]

**A:**
["10 to 500 nM", "500 to 2000 nM"]

###

# Test target: FLT-3 (Homo sapiens, UniProt P36888)
# Sequence (P36888 27-993, species assumed): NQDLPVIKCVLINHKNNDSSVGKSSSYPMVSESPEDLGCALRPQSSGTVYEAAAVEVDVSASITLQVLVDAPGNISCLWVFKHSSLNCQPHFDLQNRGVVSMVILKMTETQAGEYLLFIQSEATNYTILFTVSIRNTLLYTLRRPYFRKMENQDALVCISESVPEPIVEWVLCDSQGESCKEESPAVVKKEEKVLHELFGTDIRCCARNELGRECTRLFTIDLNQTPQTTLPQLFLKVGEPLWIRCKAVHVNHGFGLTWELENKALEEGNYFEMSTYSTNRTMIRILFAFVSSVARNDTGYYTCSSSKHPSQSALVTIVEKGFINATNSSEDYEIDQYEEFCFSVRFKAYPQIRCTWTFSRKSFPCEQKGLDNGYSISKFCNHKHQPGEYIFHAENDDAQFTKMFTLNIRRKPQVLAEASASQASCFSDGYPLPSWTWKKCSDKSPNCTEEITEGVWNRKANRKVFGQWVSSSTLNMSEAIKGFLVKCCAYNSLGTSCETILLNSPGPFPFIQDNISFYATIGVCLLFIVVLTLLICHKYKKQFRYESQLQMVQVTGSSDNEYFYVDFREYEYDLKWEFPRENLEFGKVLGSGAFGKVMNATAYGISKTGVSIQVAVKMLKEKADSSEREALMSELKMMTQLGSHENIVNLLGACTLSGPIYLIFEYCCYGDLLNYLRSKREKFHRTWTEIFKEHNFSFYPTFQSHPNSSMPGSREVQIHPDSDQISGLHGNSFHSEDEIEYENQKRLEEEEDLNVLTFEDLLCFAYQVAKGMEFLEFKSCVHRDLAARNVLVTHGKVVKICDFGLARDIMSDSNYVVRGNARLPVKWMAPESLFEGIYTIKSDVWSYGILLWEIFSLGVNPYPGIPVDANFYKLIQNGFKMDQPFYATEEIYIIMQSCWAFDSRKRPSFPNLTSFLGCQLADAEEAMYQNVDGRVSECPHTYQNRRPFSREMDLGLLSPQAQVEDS
# Experimental details: FLT-3 inhibition assay, radiometric filter-binding
# Assay type: biochemical
# Run conditions: read-out: FLT-3 Ki value
Readout: Ki

COc1ccc(C(=O)Nc2ccc(Sc3nc(Nc4cc(C)n[nH]4)cc(N4CCC4)n3)cc2)cc1 [Compound 117] : 150 to 1000 nM
CCC(=O)Nc1ccc(Sc2nc(Nc3cc(C)n[nH]3)cc(N3CC(C)(C#N)C3)n2)cc1 [Compound 79] : ≤ 50 nM
Cc1cc(Nc2cc(N3CCC3)nc(Sc3ccc(NC(=O)C4(C(F)(F)F)CC4)cc3)n2)[nH]n1 [Compound 142] : 150 to 1000 nM
Cc1cc(Nc2cc(N3CCC3)nc(Sc3ccc(NC(=O)C4CC4)cc3)n2)n[nH]1 [Compound 17] : 50 to 150 nM
CCC(=O)Nc1ccc(Sc2nc(Nc3cc(C)[nH]n3)cc(N3CCC3)n2)cc1 [Compound 14] : 50 to 150 nM
Cc1cc(Nc2cc(N3CCC3)nc(Sc3ccc(NC(=O)Cc4cccc(Cl)c4)cc3)n2)[nH]n1 [Compound 58] : 150 to 1000 nM
CCC(=O)Nc1ccc(Sc2nc(Nc3cc(C)n[nH]3)cc(N3CC(N4CCOCC4)C3)n2)cc1 [Compound 68] : 50 to 150 nM
CCC(=O)Nc1ccc(Sc2nc(Nc3cc(C)n[nH]3)cc(N3CC(OC(C)(C)C)C3)n2)cc1 [Compound 67] : 50 to 150 nM
Cc1cc(Nc2cc(N3CC(OC(=O)CN(C)C)(C4CC4)C3)nc(Sc3ccc(NC(=O)C4CC4)cc3)n2)n[nH]1 [Compound 119] : ≤ 50 nM
Cc1cc(Nc2cc(N3CC(F)(C4CC4)C3)nc(Sc3ccc(NC(=O)C4(C)CC4)cc3)n2)[nH]n1 [Compound 203] : 150 to 1000 nM

# map each compound to its Ki
1. Cc1cc(Nc2cc(N3CCC3)nc(Sc3ccc(NC(=O)C(C)CC(F)(F)F)cc3)n2)[nH]n1 (stereo not drawn) [Compound 127]
2. Cc1cc(Nc2cc(N3CC(F)C3)nc(Sc3ccc(NC(=O)c4ccccc4Cl)cc3)n2)[nH]n1 [Compound 60]
3. CCC(=O)Nc1ccc(Sc2nc(Nc3cc(C)n[nH]3)cc(N3CC(O)(C(C)(C)C)C3)n2)cc1 [Compound 81]
4. Cc1cc(Nc2cc(N3CCC3)nc(Sc3ccc(NC(=O)c4ccc(CN(C)C)cc4)cc3)n2)[nH]n1 [Compound 137]
5. Cc1cc(Nc2cc(N3CCC3)nc(Sc3ccc(NC(=O)C(C)(C)C)cc3)n2)[nH]n1 [Compound 114]

**A:**
["150 to 1000 nM", "50 to 150 nM", "≤ 50 nM", "50 to 150 nM", "150 to 1000 nM"]

###

# Test target: Aurora-2 (Aurora A) (Homo sapiens, UniProt O14965)
# Sequence (O14965 1-403): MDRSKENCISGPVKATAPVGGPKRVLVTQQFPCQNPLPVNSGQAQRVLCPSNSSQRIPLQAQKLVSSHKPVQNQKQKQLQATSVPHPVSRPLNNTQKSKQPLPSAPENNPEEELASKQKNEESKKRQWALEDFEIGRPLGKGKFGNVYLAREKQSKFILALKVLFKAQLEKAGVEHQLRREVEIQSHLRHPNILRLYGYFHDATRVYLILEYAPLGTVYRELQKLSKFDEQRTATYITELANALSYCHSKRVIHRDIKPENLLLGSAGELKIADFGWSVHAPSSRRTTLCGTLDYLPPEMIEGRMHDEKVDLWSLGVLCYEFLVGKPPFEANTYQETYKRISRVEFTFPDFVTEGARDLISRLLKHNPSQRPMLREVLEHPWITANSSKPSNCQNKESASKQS
# Experimental details: Aurora-2 (Aurora A) inhibition assay, coupled enzyme
# Type: biochemical
# Run conditions: read-out: Aurora A kinase Ki value
pKi: −log10 of the molar value.
Readout: pKi

Examples with answers:
Cc1cnc(Nc2cc(N3CCC3)nc(Sc3ccc(NC(=O)C4CC4)cc3)n2)s1 : 8.30 to 9.00
Cc1cc(Nc2cc(N3CC(F)(F)C3)nc(Sc3ccc(NC(=O)CC(F)(F)F)cc3)n2)[nH]n1 : 8.30 to 9.00
Cc1cc(Nc2cc(N3CC(OC(C)C)C3)nc(Sc3ccc(NC(=O)c4ccccc4Cl)cc3)n2)n[nH]1 : ≥ 9.00
Cc1cc(Nc2cc(N3CCC3)nc(Sc3ccc(NC(=O)c4ccccc4Cl)nc3)n2)[nH]n1 : 8.30 to 9.00
CC1=NN=C(Nc2cc(N3CCC3)nc(Sc3ccc(NC(=O)c4cccc(Cl)c4F)cc3)n2)C1 : ≥ 9.00

Could you tell me pKi for each of these compounds? They are listed below.
1. CCC(=O)Nc1ccc(Sc2nc(Nc3cc(C4CC4)n[nH]3)cc(N3CC(N4CCOCC4)C3)n2)cc1
2. Cc1cc(Nc2cc(N3CC4(CCCO4)C3)nc(Sc3ccc(NC(=O)C4CC4)cc3)n2)[nH]n1

**A:**
≥ 9.00
8.30 to 9.00

Quick batch: pKi for everything below.
1. CCOP(=O)(O)OC1(C)CN(c2cc(Nc3cc(C)n[nH]3)nc(Sc3ccc(NC(=O)c4ccccc4C(F)(F)F)cc3)n2)C1
2. Cc1cc(Nc2cc(N3CCC3)nc(Oc3ccc(NC(=O)c4ccccc4C(F)(F)F)cc3)n2)[nH]n1
3. Cc1cc(Nc2cc(N3CC(F)(C4CC4)C3)nc(Sc3ccc4c(c3)CN(CC(F)(F)F)C4=O)n2)[nH]n1
4. Cc1cc(Nc2cc(N3CCC3)nc(Sc3ccc(NS(C)(=O)=O)cc3)n2)[nH]n1
5. Cc1cc(Nc2cc(N3CC(C)(C(C)(C)F)C3)nc(Sc3ccc(NC(=O)CC(F)(F)F)cc3)n2)[nH]n1

**A:**
1. ≥ 9.00
2. 8.30 to 9.00
3. ≥ 9.00
4. 6.70 to 8.30
5. ≥ 9.00

###

# Test target: Aurora-1 (Aurora B) (Homo sapiens, UniProt Q96GD4)
# Sequence (Q96GD4 whole entry): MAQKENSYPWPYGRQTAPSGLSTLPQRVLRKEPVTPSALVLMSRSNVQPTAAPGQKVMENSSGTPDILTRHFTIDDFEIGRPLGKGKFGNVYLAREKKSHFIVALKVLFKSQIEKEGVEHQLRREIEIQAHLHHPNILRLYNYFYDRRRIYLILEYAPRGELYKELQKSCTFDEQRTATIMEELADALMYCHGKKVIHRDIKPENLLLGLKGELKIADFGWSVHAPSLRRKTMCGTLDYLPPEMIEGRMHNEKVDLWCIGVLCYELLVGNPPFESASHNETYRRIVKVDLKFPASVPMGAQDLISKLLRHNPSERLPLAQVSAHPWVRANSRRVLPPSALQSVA
# Experimental details: Aurora-1 (Aurora B) inhibition assay (radiometric)
# Type: biochemical
# Run conditions: read-out: Aurora B kinase Ki value
Readout: Ki

Completed entries (count: 5):
Cc1cc(Nc2cc(N3CC(F)(C4CC4)C3)nc(Sc3ccc4nc(CC(F)(F)F)n(C)c4c3)n2)[nH]n1 : ≤ 10 nM
Cc1cc(Nc2cc(N3CC(O)(C4CC4)C3)nc(Sc3ccc4nc(C(F)(F)F)ccc4c3)n2)[nH]n1 : ≤ 10 nM
Cc1cc(Nc2cc(N3CCC3)nc(Sc3ccc(NC(=O)OC(C)(C)C)cc3)n2)n[nH]1 : 50 to 2000 nM
CCCNC(=O)Nc1ccc(Sc2nc(Nc3cc(C)[nH]n3)cc(N3CCC3)n2)cc1 : 50 to 2000 nM
Cc1cc(Nc2cc(N3CCC3)nc(Sc3ccc(NC(=O)NCc4ccccc4)cc3)n2)n[nH]1 : 50 to 2000 nM

// for each molecule below, give its Ki
1. Cc1cc(Nc2cc(NCC3(C)COC3)nc(Sc3ccc(NC(=O)c4ccccc4Cl)cc3)n2)[nH]n1
2. CC1=NN=C(Nc2cc(N3CCC3)nc(Sc3ccc(NC(=O)c4ccccc4Cl)cc3)n2)C1

**A:**
1. ≤ 10 nM
2. ≤ 10 nM

###

Please go through the items and note down their Ki.
# Test target: FLT-3 (Homo sapiens)
# Experimental details: FLT-3 inhibition assay, radiometric filter-binding
# Format: biochemical

Cc1cc(Nc2cc(N3CC(C)(O)C3)nc(Sc3ccc(NC(=O)c4ccccc4Cl)cc3)n2)[nH]n1 : ≤ 50 nM
CCC(=O)Nc1ccc(Sc2nc(Nc3cc(C)n[nH]3)cc(N3CC(O)(C(F)(F)F)C3)n2)cc1 : ≤ 50 nM
Cc1cc(Nc2cc(N3CCC3)nc(Sc3ccc(NC(=O)c4nccn4C)cc3)n2)n[nH]1 : 150 to 1000 nM

Query compound follows.
**Q:** Form field: reported Ki of Cc1cc(Nc2cc(N3CCC3)nc(Sc3ccc(NC(=O)c4cnccc4C(F)(F)F)cc3)n2)[nH]n1
**A:** 150 to 1000 nM

Source: patent US8637511B2
